molecular target: serotonin 5-HT2B receptor (Homo sapiens)
Sequence (P41595 whole entry): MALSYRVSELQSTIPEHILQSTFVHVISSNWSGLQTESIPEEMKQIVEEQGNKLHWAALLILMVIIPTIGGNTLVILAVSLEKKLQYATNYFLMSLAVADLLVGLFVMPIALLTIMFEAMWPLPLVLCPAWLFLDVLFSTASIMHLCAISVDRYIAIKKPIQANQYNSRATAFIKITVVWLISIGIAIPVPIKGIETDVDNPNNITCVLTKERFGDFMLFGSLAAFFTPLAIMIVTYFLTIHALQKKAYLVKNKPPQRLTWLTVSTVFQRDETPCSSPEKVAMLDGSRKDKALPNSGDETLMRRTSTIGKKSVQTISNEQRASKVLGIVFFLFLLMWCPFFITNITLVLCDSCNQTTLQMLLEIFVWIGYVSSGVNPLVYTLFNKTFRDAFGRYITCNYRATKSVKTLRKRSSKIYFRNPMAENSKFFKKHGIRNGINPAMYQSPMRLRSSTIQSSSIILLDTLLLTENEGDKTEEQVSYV
recorded endpoint: pIC50
Here pIC50 is given on a logarithmic scale as minus log10 of the concentration in mol/L.

Q: Looking for the measured pIC50 of COc1ccc(Cc2cn[nH]c2)nc1-c1cccc([N+](=O)[O-])c1 [Compound 6] , can you help?
A: 6.12

----------
assay: Mouse iv cassette pharmacokinetics, brain uptake; type: in vivo, CD1 mice; conditions: intravenous dosing; SUV = brain Cmax (ng/mL)/dose (mg/kg)/1000
recorded endpoint: SUV, brain uptake in mice (SUV)
Please state the figure in SUV; there is no need to write the unit.

Example entries and their recorded answers appear below.
COc1ccc(Cc2ccncc2)nc1-c1cccc(Cl)c1	0.94
COc1ccc(Cc2cn[nH]c2)nc1-c1cccc([N+](=O)[O-])c1	1.76
Cn1cc(Cc2ccc(OC(F)F)c(-c3cccc(Cl)c3)n2)cn1	1.44

Let us move to another entry and its SUV, brain uptake in mice.
Q: What value of measured SUV, brain uptake in mice is listed for `COc1ccc(Cc2ccncc2)nc1-c1cccc([N+](=O)[O-])c1` ?
A: 1.76

----------
molecular target: PDE4B1 (S133D) (Homo sapiens, UniProt Q07343, S133D/S659A/S661A); experiment: PDE4 enzyme inhibition assay, counter-screen
Sequence (Q07343 whole entry S133D/S659A/S661A): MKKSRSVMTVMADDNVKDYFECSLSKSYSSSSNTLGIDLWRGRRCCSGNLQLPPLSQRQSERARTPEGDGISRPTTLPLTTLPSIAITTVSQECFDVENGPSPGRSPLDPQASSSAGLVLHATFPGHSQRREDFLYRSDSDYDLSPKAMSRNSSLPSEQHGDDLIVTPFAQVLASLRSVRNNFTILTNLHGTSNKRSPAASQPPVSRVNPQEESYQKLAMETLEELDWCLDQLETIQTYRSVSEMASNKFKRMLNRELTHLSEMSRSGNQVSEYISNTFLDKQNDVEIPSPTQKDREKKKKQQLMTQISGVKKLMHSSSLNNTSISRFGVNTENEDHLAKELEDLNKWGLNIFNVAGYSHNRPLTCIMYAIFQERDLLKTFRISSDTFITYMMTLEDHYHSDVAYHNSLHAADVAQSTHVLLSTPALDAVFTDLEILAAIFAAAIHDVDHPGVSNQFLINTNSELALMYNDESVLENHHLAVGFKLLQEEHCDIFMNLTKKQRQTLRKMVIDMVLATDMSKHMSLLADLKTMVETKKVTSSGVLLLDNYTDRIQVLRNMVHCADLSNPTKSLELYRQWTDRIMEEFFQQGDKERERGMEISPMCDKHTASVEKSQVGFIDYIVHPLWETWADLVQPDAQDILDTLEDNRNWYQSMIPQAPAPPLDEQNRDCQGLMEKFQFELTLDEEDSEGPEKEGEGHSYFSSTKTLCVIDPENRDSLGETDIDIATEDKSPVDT
Below, each entry is listed with its recorded IC50.
Unit µM implied. Number only.

Sample answers from the record:
COc1ccc(Cc2cn[nH]c2)nc1-c1cccc([N+](=O)[O-])c1	1.12
COc1ccc(Cc2ccncc2)nc1-c1cccc(Cl)c1	0.72
Cn1cc(Cc2ccc(OC(F)F)c(-c3cccc(Cl)c3)n2)cn1	0.858

Q: What does the data say about its IC50? Entry: `COc1ccc(Cc2ccncc2)nc1-c1cccc([N+](=O)[O-])c1`
A: 0.28
